Test system: MS2 coat protein
Assay protocol: apparent KD of MS2 coat protein; designed switch direction (-1 OFF switch, 1 ON switch): -1; higher = weaker reporter binding
Conditions: Eterna round: R95; input ligand: microRNA oligo, concentration not stated
Experimental endpoint: apparent KD of MS2 coat protein (nM)

sequence_text="GAUAAAGGGCAGGAUAUGGCUGGAAAAUAUCCGCCAGAAGGGCCCACAUGAGGAUCACCCAUGUGUGGUCCGCG [Lere] (puzzle: Exclusion 6)" experimental_endpoint="apparent KD of MS2 coat protein" data_value=17.3
sequence_text="AAAAGUUAAGGAUAUACAGGGAGCCGCGGCGUCUGGCCGCAACAUGAGGAUCACCCAUGUAGAAGGUAGCCAAA [Maatmaso] (puzzle: Exclusion 2)" experimental_endpoint="apparent KD of MS2 coat protein" data_value=20.6
sequence_text="GUUGCGUUUGUGAGGAUAUGCUGUUCCUUGGUUCGGCAGAAGGCACAUGAGGAUCACCCAUGUGGUGUCGUUCC [salish99_Bmod_ex4_053] (puzzle: Brourd's mod of Exclusion 4)" experimental_endpoint="apparent KD of MS2 coat protein" data_value=14.6
